tested on: EKVX; test: NCI tumour cell line growth inhibition, 48 h
Active and inactive are the calls of the source. Rule as the data show it: active = GI50 up to about 1.1 µM and inactive = higher.
// classify into active, inactive

Worked examples, 5 compounds total:
| COMPOUND | LABEL |
| --- | --- |
| O=c1c2ccccc2n2nnc3ccc(NCCNCCO)c1c32 | inactive |
| CC1=CC(C)(C)N=C2SC(c3ccc(Cl)cc3)=NN12 | inactive |
| CCCCCCCCCCCCCCC(O)C1CCC(C(O)CCC(O)CCCCCC(O)CC2=CC(C)OC2=O)O1 (stereo not drawn) | inactive |
| C[n+]1[n-]o/c(=N\N=O)c1-c1cc(-c2/c(=N/N=O)o[n-][n+]2C)cc(-c2/c(=N\N=O)o[n-][n+]2C)c1 | inactive |
| Nc1ccc(-c2nc3ccc(F)cc3s2)cc1 | inactive |

**Q:** In this assay, the call recorded for COc1c2ccoc2c(S(=O)(=O)Nc2ccc(Cl)cc2)c2oc(C)cc(=O)c12 was what?
**A:** inactive

**Q:** In this assay, the call recorded for C=CCN1C(=O)C[C@H](Cc2ccccc2)NC(=O)C[C@H](Cc2ccccc2)N(CC=C)C(=O)C[C@H](Cc2ccccc2)NC(=O)C[C@@H]1Cc1ccccc1 was what?
**A:** active

====

system: U-251; assay: NCI tumour cell line growth inhibition, 48 h
Active and inactive are the calls of the source. Cut-off read from the data, not from the text of the source: active = GI50 up to about 1.1 µM and inactive = higher.
TEST READOUT: GI50

// below: answered compounds
| COMPOUND | TEST READOUT | REPORTED RESULT |
| --- | --- | --- |
| O=C1C(Sc2ccc3ccccc3c2)=C(Sc2ccc3ccccc3c2)C(=O)c2ccccc21 | GI50 | 6.21 µM (inactive) |
| COc1cc2c(cc1OC)-c1c3cc(O)ccc3nn[n+]1CC2 | GI50 | > 100 µM (inactive) |
| O=c1c(Br)c(-c2ccccc2)[s+]([O-])c2ccccc12 (configuration not stated) | GI50 | 8.07 µM (inactive) |
| CCC(C)(C)NC1=C(NC(C)=O)C(=O)c2ccccc2C1=O | GI50 | 36.1 µM (inactive) |
| CC1=NN(c2cccc(Cl)c2)C2(C1=C/C=C/c1ccccc1)C(Cl)C(=O)N2c1nc2ccccc2s1 (configuration not stated) | GI50 | 6.92 µM (inactive) |

# batch size: 6; output GI50 per entry
1. CCOC(=O)C(C)OC(=O)c1ccc(C)cc1 (configuration not stated)
2. CN(C)CCN(C)C(=O)c1cccc2cccc(C(=O)O)c12
3. O=C1c2ccccc2C(=O)N1C1(C(=O)NC2(C(=O)O)CCCC2)CCCC1
4. O=C(C#Cc1cnc(O)nc1O)c1ccccc1Cl
5. CC1=CC(C)(C)N=C2SC(c3ccc(Cl)cc3)=NN12
6. COC(=O)/C(=C1\OC(=O)C(c2ccc(Cl)cc2)=C1O)c1ccc(Cl)cc1

**A:**
["> 100 µM (inactive)", "> 100 µM (inactive)", "> 100 µM (inactive)", "17.9 µM (inactive)", "23 µM (inactive)", "24.3 µM (inactive)"]

# batch size: 8; output GI50 per entry
1. COc1c(-c2ccc(F)cc2)oc2c(CC(=O)O)cccc2c1=O
2. COc1cccc(NC(=O)C(=O)C(C(=O)c2ccccc2F)C2OC(=O)c3ccccc32)c1 (configuration not stated)
3. COC(=O)C1CCN(C(=O)OC(C)(C)C)CC1
4. N#Cc1ccccc1Sc1ccccc1N
5. CC1Cc2cc(O)ccc2C2[C@@H]1C1CC[C@H](O)[C@@]1(C)C[C@@H]2O[N+](=O)[O-] (some centres not stated)
6. O=C(O)C(CS)NCc1c2ccccc2[n+]([O-])c2ccccc12 (configuration not stated)
7. CC(C)OP(=O)(OC(C)C)/C(=N/Nc1ccc([N+](=O)[O-])cc1)NNC(=O)c1ccccc1
8. COC1=CC(=O)[C@]2(C)[C@H](C1=O)C(C)[C@H]2c1ccccc1 (some centres not stated)

**A:**
> 100 µM (inactive)
15.5 µM (inactive)
> 100 µM (inactive)
> 100 µM (inactive)
3.99 µM (inactive)
45.4 µM (inactive)
26.1 µM (inactive)
> 100 µM (inactive)
